molecular target: DNMT1 (Homo sapiens, UniProt P26358); assay: Selective depletion of DNMT1 by Western blot in treated HCT116 cells; assay type: cell-based; design: Protein extracts (equivalent to 100 μg) were isolated from HCT116 cells; endogenous in cells; host or cells: HCT116; settings: HCT-116, 10 μM
Sequence (P26358 whole entry): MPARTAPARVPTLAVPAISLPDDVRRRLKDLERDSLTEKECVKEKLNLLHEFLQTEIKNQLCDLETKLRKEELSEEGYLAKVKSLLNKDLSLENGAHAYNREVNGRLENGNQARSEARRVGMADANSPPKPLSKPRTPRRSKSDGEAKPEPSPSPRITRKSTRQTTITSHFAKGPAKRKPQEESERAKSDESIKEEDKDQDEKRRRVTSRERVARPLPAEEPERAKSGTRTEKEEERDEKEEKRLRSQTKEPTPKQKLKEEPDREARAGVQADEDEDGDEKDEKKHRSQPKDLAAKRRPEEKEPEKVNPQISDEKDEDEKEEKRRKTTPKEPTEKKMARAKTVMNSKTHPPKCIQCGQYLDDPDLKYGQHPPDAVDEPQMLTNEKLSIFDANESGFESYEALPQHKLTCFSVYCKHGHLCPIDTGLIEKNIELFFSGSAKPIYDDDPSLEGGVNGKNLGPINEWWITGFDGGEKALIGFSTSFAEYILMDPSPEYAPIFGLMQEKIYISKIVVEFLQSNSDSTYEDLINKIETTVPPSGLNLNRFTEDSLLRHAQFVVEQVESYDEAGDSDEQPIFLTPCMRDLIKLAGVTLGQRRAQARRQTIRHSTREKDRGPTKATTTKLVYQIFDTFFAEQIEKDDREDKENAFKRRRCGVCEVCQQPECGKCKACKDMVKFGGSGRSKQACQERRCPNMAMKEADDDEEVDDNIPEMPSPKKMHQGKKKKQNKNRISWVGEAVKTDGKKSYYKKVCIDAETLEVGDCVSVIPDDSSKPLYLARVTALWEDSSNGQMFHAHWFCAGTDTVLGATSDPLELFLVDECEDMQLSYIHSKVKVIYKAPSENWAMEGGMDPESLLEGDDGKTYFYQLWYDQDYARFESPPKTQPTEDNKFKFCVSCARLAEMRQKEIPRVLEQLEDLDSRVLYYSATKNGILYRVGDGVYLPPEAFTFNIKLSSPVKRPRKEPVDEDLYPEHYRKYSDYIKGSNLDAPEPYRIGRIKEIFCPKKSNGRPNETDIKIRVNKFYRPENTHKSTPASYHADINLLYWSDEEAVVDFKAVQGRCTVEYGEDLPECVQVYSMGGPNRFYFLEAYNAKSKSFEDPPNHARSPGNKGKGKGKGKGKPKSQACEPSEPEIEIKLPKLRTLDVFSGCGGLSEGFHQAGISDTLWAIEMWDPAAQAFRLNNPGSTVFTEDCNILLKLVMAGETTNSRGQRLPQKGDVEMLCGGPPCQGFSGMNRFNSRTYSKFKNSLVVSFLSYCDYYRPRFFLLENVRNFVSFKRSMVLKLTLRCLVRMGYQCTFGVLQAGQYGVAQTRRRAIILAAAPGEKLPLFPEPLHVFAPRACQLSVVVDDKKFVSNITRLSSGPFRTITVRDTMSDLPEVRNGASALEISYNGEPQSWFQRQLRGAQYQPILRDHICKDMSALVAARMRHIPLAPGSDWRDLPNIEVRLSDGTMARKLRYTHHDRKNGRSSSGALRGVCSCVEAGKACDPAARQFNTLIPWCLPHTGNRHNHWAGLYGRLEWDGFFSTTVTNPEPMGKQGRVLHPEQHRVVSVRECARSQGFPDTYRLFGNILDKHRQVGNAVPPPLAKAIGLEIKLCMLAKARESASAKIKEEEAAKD
Where a name gives a salt, the structure may show the parent alone.
assay metric: % DNMT1 protein level remaining at 10 µM (%)
API: value field is a number in %; no unit string.

| compound | units of measure | % DNMT1 protein level remaining at 10 µM |
| --- | --- | --- |
| CN(C)c1ccc2c(Nc3ccc(NC(=O)c4cccc(Nc5cc[n+](C)cc5)c4)cc3)ccnc2c1 | % | 81 |
| Cc1cc(Nc2ccc(NC(=O)c3ccc(Nc4ccnc5ccc(Cl)cc45)cc3)cc2)nc(N)n1 | % | 15 |
| Cc1cc(Nc2ccc(C(=O)Nc3ccc(Nc4ccnc5cc(N)ccc45)cc3)cc2)nc(N)n1 [Cpd. GG2, dihydrochloride] | % | 52 |
| C[n+]1ccc(Nc2ccc(C(=O)Nc3ccc(Nc4ccnc5cc(N)ccc45)cc3)cc2)cc1 | % | 63 |
| Cc1cc(Nc2ccc(NC(=O)c3ccc(Nc4ccnc5cc(N(C)C)ccc45)cc3)cc2)nc(N)n1 [Cpd. BB, hydrochloride] | % | 76 |

Qu. Which % DNMT1 protein level remaining at 10 µM reading was recorded for the compound C[n+]1ccc(Nc2ccc(NC(=O)c3ccc(Nc4ccnc5ccccc45)cc3)cc2)cc1 [Cpd. B, hydrochloride] ?
Ans. 98

Qu. Which % DNMT1 protein level remaining at 10 µM reading was recorded for the compound "C[n+]1ccc(Nc2ccc(NC(=O)c3ccc(Nc4ccnc5cc(N)ccc45)cc3)cc2)cc1" ?
Ans. 75

Qu. Which % DNMT1 protein level remaining at 10 µM reading was recorded for the compound Nc1cc(Nc2cccc(C(=O)Nc3ccc(Nc4ccnc5ccc([N+](=O)[O-])cc45)cc3)c2)nc(N)n1 [Cpd. RR1, dihydrochloride] ?
Ans. 100
